- systemTested: cIAP1-BIR3 (Homo sapiens (Human))
- Sequence (Q13490 253-363): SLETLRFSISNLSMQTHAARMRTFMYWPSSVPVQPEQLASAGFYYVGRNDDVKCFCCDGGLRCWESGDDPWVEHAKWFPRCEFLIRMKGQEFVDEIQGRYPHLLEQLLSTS
- assayComment: BIR binding assay (FRET competition), cIAP1 BIR3
parameterMeasured: IC50

INSERT INTO assay_data (structureassmiles, result) VALUES
  ('C[C@@H]1CN(CC(=O)N2CC(C)(C)c3ncc(Nc4ccc(F)cc4)cc32)[C@@H](CN2CCO[C@H](COc3cccc(OC[C@@H]4CN(C[C@H]5CN[C@H](C)CN5CC(=O)N5CC(C)(C)c6ncc(Nc7ccc(F)cc7)cc65)CCO4)c3)C2)CN1', '31.6 to 501 nM'),
  ('C[C@@H]1CN(CC(=O)N2CC(C)(C)c3[nH]c(=O)c(Cc4ccc(Br)cc4)cc32)[C@@H](CN2CCO[C@H](C(=O)NCc3ccc(CNC(=O)[C@@H]4CN(C[C@H]5CN[C@H](C)CN5CC(=O)N5CC(C)(C)c6[nH]c(=O)c(Cc7ccc(Br)cc7)cc65)CCO4)cc3)C2)CN1', '1.38 to 7.94 nM'),
  ('C[C@@H]1CN(CC(=O)N2CC(C)(C)c3[nH]c(=O)c(Cc4ccc(F)cc4)cc32)[C@@H](CN2CCN(Cc3c(F)c(F)c(CN4CCN(C[C@H]5CN[C@H](C)CN5CC(=O)N5CC(C)(C)c6[nH]c(=O)c(Cc7ccc(F)cc7)cc65)[C@H](C)C4)c(F)c3F)C[C@H]2C)CN1', '15.8 to 31.6 nM');

Moving on to another molecule below.
Task item: Reported IC50 for C[C@@H]1CN(CC(=O)N2CC(C)(C)c3[nH]c(=O)c(Cc4ccc(F)cc4)cc32)[C@@H](CN2CCC(C(F)(F)COc3cccc(OCC(F)(F)C4CCN(C[C@H]5CN[C@H](C)CN5CC(=O)N5CC(C)(C)c6[nH]c(=O)c(Cc7ccc(F)cc7)cc65)CC4)c3)CC2)CN1 : what is it?
Reply: 15.8 to 31.6 nM

----------
- systemTested: cIAP2-BIR3 (Homo sapiens (Human))
- Sequence (Q13489 238-349): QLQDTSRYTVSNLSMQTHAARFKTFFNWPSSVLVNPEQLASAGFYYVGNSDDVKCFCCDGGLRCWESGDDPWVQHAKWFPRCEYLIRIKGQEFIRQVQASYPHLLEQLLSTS
- assayComment: BIR binding assay (FRET competition), cIAP2 BIR3
parameterMeasured: IC50

INSERT INTO measurements (molecule, parametermeasured, result) VALUES
  ('C[C@@H]1CN(CC(=O)N2CC(C)(C)c3[nH]c(=O)c(Cc4ccc(F)cc4)cc32)[C@@H](CN2CCN(C(=O)CCCCCCCCC(=O)N3CCN(C[C@H]4CN[C@H](C)CN4CC(=O)N4CC(C)(C)c5[nH]c(=O)c(Cc6ccc(F)cc6)cc54)[C@H](C)C3)C[C@H]2C)CN1 [Example 3]', 'IC50', '15.8 to 31.6 nM'),
  ('COc1cc(Cl)ccc1Cc1cc2c([nH]c1=O)C(C)(C)CN2C(=O)CN1C[C@@H](C)NC[C@@H]1CN1CCO[C@H](C(=O)NCc2ccc(CNC(=O)[C@@H]3CN(C[C@H]4CN[C@H](C)CN4CC(=O)N4CC(C)(C)c5[nH]c(=O)c(Cc6ccc(Cl)cc6OC)cc54)CCO3)cc2)C1 [Compound 169]', 'IC50', '1.38 to 7.94 nM'),
  ('C[C@@H]1CN(CC(=O)N2CC(C)(C)c3[nH]c(=O)c(Cc4ccc(F)cc4)cc32)[C@@H](CN2CCN(C(=O)COCCOCCOCC(=O)N3CCN(C[C@H]4CN[C@H](C)CN4CC(=O)N4CC(C)(C)c5[nH]c(=O)c(Cc6ccc(F)cc6)cc54)[C@H](C)C3)C[C@H]2C)CN1 (stereo in doubt) [Example 6]', 'IC50', '1.38 to 7.94 nM');

Moving on to another molecule below.
Task item: Reported IC50 for C[C@@H]1CN(CC(=O)N2CC(C)(C)c3[nH]c(=O)c(Cc4ccc(F)cc4)cc32)[C@@H](CN2CCC(CNC(=O)c3ccc(C(=O)NCC4CCN(C[C@H]5CN[C@H](C)CN5CC(=O)N5CC(C)(C)c6[nH]c(=O)c(Cc7ccc(F)cc7)cc65)CC4)cc3)CC2)CN1 [Example 101] : what is it?
Reply: 1.38 to 7.94 nM

----------
- systemTested: XIAP-BIR2 (Homo sapiens (Human), UniProt P98170)
- Sequence (P98170 124-240): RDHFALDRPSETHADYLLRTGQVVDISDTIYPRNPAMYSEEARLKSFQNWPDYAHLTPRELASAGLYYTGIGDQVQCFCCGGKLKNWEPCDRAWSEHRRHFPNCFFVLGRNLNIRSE
- assayComment: BIR binding assay (FRET competition), XIAP BIR2
- appliedConditions: FRET competition; read-out: XIAP BIR2 (pIC50) (converted)
- Protocol: The BIR domain binding assays are FRET based competition assays that utilize His-tagged versions of each of the BIR2 and BIR3 domains from cIAP1, cIAP2, and XIAP (each domain assayed separately) each at a custom optimal concentration and a probe, 200 nM SMAC/DIABLO peptide AVPIAQKSE labelled with AlexaFluor647 (part #crb 1110326h, Discovery Peptides). […]
Entries and their IC50 values follow.

Solved entries:
INSERT INTO assay_data (structureassmiles, result) VALUES
  ('C[C@@H]1CN(CC(=O)N2CC(C)(C)c3[nH]c(=O)c(Cc4ccc(F)cc4)cc32)[C@@H](CN2CCO[C@H](C(=O)Nc3cccc(NC(=O)[C@@H]4CN(C[C@H]5CN[C@H](C)CN5CC(=O)N5CC(C)(C)c6[nH]c(=O)c(Cc7ccc(F)cc7)cc65)CCO4)c3)C2)CN1', '10 to 51.3 µM'),
  ('C[C@@H]1CN(CC(=O)N2CC(C)(C)c3[nH]c(=O)c(Cc4ccc(F)cc4)cc32)[C@@H](CN2CCN(Cc3cn(CC(=O)N4CCN(C[C@H]5CN[C@H](C)CN5CC(=O)N5CC(C)(C)c6[nH]c(=O)c(Cc7ccc(F)cc7)cc65)[C@H](C)C4)nn3)C[C@H]2C)CN1', '10 to 51.3 µM'),
  ('C[C@@H]1CN(CC(=O)N2CC(C)(C)c3[nH]c(=O)c(Cc4ccc(F)cc4)cc32)[C@@H](CN2CCO[C@H](C(=O)NCCCCCNC(=O)[C@@H]3CN(C[C@H]4CN[C@H](C)CN4CC(=O)N4CC(C)(C)c5[nH]c(=O)c(Cc6ccc(F)cc6)cc54)CCO3)C2)CN1', '10 to 51.3 µM');

Task item: Reported IC50 for Cc1ccc(Cc2cc3c([nH]c2=O)C(C)(C)CN3C(=O)CN2C[C@@H](C)NC[C@@H]2CN2CCO[C@H](C(=O)NCc3ccc(CNC(=O)[C@@H]4CN(C[C@H]5CN[C@H](C)CN5CC(=O)N5CC(C)(C)c6[nH]c(=O)c(Cc7ccc(C)cc7)cc65)CCO4)cc3)C2)cc1 : what is it?
Reply: 10 to 51.3 µM

Task item: Reported IC50 for Cc1c(NC(=O)[C@@H]2CN(C[C@H]3CN[C@H](C)CN3CC(=O)N3CC(C)(C)c4[nH]c(=O)c(Cc5ccc(F)cc5)cc43)CCO2)cccc1NC(=O)[C@@H]1CN(C[C@H]2CN[C@H](C)CN2CC(=O)N2CC(C)(C)c3[nH]c(=O)c(Cc4ccc(F)cc4)cc32)CCO1 : what is it?
Reply: 10 to 51.3 µM

Task item: Reported IC50 for C[C@@H]1CN(CC(=O)N2CC(C)(C)c3[nH]c(=O)c(Cc4ccc(F)cc4F)cc32)[C@@H](CN2CCO[C@H](C(=O)NCc3ccc(CNC(=O)[C@@H]4CN(C[C@H]5CN[C@H](C)CN5CC(=O)N5CC(C)(C)c6[nH]c(=O)c(Cc7ccc(F)cc7F)cc65)CCO4)cc3)C2)CN1 : what is it?
Reply: 10 to 51.3 µM

Task item: Reported IC50 for C[C@@H]1CN(CC(=O)N2CC(C)(C)c3[nH]c(=O)c(Oc4ccc(Cl)cc4)cc32)[C@@H](CN2CCO[C@H](C(=O)NCc3ccc(CNC(=O)[C@@H]4CN(C[C@H]5CN[C@H](C)CN5CC(=O)N5CC(C)(C)c6[nH]c(=O)c(Oc7ccc(Cl)cc7)cc65)CCO4)cc3)C2)CN1 : what is it?
Reply: 10 to 51.3 µM

Task item: Reported IC50 for C[C@@H]1CN(CC(=O)N2CC(C)(C)c3[nH]c(=O)c(Oc4ccc(F)cc4)cc32)[C@@H](CN2CCO[C@H](C(=O)NCc3ccc(CNC(=O)[C@@H]4CN(C[C@H]5CN[C@H](C)CN5CC(=O)N5CC(C)(C)c6[nH]c(=O)c(Oc7ccc(F)cc7)cc65)CCO4)cc3)C2)CN1 : what is it?
Reply: 10 to 51.3 µM

Task item: Reported IC50 for C[C@@H]1CN(CC(=O)N2CC(C)(C)c3[nH]c(=O)c(Cc4ccc(F)cc4)cc32)[C@@H](CN2CCN(CCc3cn(CCCC(=O)N4CCN(C[C@H]5CN[C@H](C)CN5CC(=O)N5CC(C)(C)c6[nH]c(=O)c(Cc7ccc(F)cc7)cc65)[C@H](C)C4)nn3)C[C@H]2C)CN1 : what is it?
Reply: 10 to 51.3 µM
